System: DNA gyrase
Test: relative enzymatic activity vs untreated control (fraction); higher = less inhibition
Details: 100 µM; incubation time: 2 h at 37 C
Overview of reported relative enzymatic activity across a group of compounds:

- compound: "CCCCCCCCCCCCCCCC[n+]1ccccc1.[Cl-]"
  targetOrTestSystem: "DNA gyrase"
  relative enzymatic activity: 1.22
- compound: "O=[N+]([O-])c1ccc(N(CCO)CCO)c2c1no[n+]2[O-]"
  targetOrTestSystem: "DNA gyrase"
  relative enzymatic activity: 1.22
- compound: "Cc1c(N)nc([C@H](CC(N)=O)NC[C@@H](N)C(N)=O)nc1C(=O)N[C@H](C(=O)N[C@@H](C)[C@H](O)[C@@H](C)C(=O)N[C@@H](C(=O)NCCc1nc(-c2nc(C(=O)NCCC[S+](C)C)cs2)cs1)[C@@H](C)O)[C@@H](O[C@H]1O[C@H](CO)[C@H](O)[C@@H](O)[C@H]1O[C@H]1O[C@H](CO)[C@@H](O)[C@H](OC(N)=O)[C@@H]1O)c1c[nH]cn1"
  targetOrTestSystem: "DNA gyrase"
  relative enzymatic activity: 0.0451
- compound: "[O-][n+]1ccccc1[S][Zn][S]c1cccc[n+]1[O-]"
  targetOrTestSystem: "DNA gyrase"
  relative enzymatic activity: 0.849
- compound: "CC(=O)Oc1ccc(Cl)c2cccnc12"
  targetOrTestSystem: "DNA gyrase"
  relative enzymatic activity: 0.756
- compound: "CN1C(=O)[C@]23CC4=CC=C[C@H](O)[C@H]4N2C(=O)[C@@]1(CO)SS3"
  targetOrTestSystem: "DNA gyrase"
  relative enzymatic activity: 0.669
- compound: "O=[N+]([O-])C(Br)(CO)CO"
  targetOrTestSystem: "DNA gyrase"
  relative enzymatic activity: 0.108
- compound: "CCCCCCCCCCCCCCCC[n+]1ccccc1"
  targetOrTestSystem: "DNA gyrase"
  relative enzymatic activity: 1.17
- compound: "CN(C)[C@@H]1C(=O)[C@H](C(N)=O)C(=O)[C@@]2(O)C(=O)[C@@H]3C(=O)c4c(O)cccc4[C@@](C)(O)[C@H]3C[C@@H]12"
  targetOrTestSystem: "DNA gyrase"
  relative enzymatic activity: 0.891
- compound: "O=S(=O)(O)O.Oc1cccc2cccnc12"
  targetOrTestSystem: "DNA gyrase"
  relative enzymatic activity: 0.857
- compound: "CNC1C(O)C(OC2C(N)CC(N)C(OC3OC(C(C)O)C(O)C(O)C3N)C2O)OCC1(C)O (stereo unspecified)"
  targetOrTestSystem: "DNA gyrase"
  relative enzymatic activity: 1.19
- compound: "Oc1cc(Cl)ccc1Oc1ccc(Cl)cc1Cl"
  targetOrTestSystem: "DNA gyrase"
  relative enzymatic activity: 1.04
- compound: "CN(C)[C@@H]1C(=O)[C@@H](C(N)=O)C(=O)[C@@]2(O)C(=O)[C@H]3C(=O)c4c(O)ccc(Cl)c4[C@@](C)(O)[C@H]3C[C@@H]12"
  targetOrTestSystem: "DNA gyrase"
  relative enzymatic activity: 0.69
- compound: "CN(C)[C@@H]1C(=O)C(C(N)=O)=C(O)[C@@]2(O)C(O)=C3C(=O)c4c(O)cccc4[C@](C)(O)[C@H]3C[C@@H]12"
  targetOrTestSystem: "DNA gyrase"
  relative enzymatic activity: 1.15
- compound: "Cn1ncnc2c(=O)n(C)c(=O)nc1-2"
  targetOrTestSystem: "DNA gyrase"
  relative enzymatic activity: 0.373
- compound: "CN[C@H]1C[C@@H](N)[C@H](O)[C@@H](O[C@@H]2O[C@H](CO)[C@H](O)[C@@H]3O[C@@]4(O[C@H]23)O[C@H]([C@@H](N)CO)[C@H](O)[C@H](O)[C@H]4O)[C@@H]1O"
  targetOrTestSystem: "DNA gyrase"
  relative enzymatic activity: 0.984

----------
Biological target: MurA (UniProt Q3YX52)
Sequence (Q3YX52 whole entry): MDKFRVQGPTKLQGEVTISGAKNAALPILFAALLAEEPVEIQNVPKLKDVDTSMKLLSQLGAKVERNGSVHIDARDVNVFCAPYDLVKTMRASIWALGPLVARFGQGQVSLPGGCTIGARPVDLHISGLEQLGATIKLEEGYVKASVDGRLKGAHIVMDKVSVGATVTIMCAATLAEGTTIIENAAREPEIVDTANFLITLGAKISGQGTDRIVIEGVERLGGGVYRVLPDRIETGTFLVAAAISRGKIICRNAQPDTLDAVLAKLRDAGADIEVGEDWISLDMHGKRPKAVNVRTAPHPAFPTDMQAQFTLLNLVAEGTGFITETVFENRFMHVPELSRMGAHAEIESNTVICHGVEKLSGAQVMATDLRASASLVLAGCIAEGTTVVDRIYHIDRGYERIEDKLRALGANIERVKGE
Assay: relative enzymatic activity vs untreated control (fraction); higher = less inhibition
Conditions: 100 µM; incubation time: 2 h at 37 C
Tick YES if relative enzymatic activity is 0.4 or greater. Tick NO if relative enzymatic activity is less than 0.4.

- chemicalSmiles: "CN[C@H]1C[C@@H](N)[C@H](O)[C@@H](O[C@@H]2O[C@H](CO)[C@H](O)[C@@H]3O[C@@]4(O[C@H]23)O[C@H]([C@@H](N)CO)[C@H](O)[C@H](O)[C@H]4O)[C@@H]1O"
  targetOrTestSystem: "MurA (UniProt Q3YX52)"
  discreteLabel: "YES"
- chemicalSmiles: "CC(=O)Oc1ccc(Cl)c2cccnc12"
  targetOrTestSystem: "MurA (UniProt Q3YX52)"
  discreteLabel: "YES"
- chemicalSmiles: "COP(=S)(OC)Oc1cc(Cl)c(Cl)cc1Cl"
  targetOrTestSystem: "MurA (UniProt Q3YX52)"
  discreteLabel: "YES"
- chemicalSmiles: "CCCCCCCCCCCCCCCC[N+](C)(C)C.[Br-]"
  targetOrTestSystem: "MurA (UniProt Q3YX52)"
  discreteLabel: "NO"
- chemicalSmiles: "CCCCCCCCCCCCCCCC[n+]1ccccc1.[Cl-]"
  targetOrTestSystem: "MurA (UniProt Q3YX52)"
  discreteLabel: "NO"
- chemicalSmiles: "CCCCCCCCCCCCCCCC[n+]1ccccc1"
  targetOrTestSystem: "MurA (UniProt Q3YX52)"
  discreteLabel: "NO"
- chemicalSmiles: "CN(C)[C@@H]1C(=O)[C@H](C(N)=O)C(=O)[C@@]2(O)C(=O)[C@@H]3C(=O)c4c(O)cccc4[C@@](C)(O)[C@H]3C[C@@H]12"
  targetOrTestSystem: "MurA (UniProt Q3YX52)"
  discreteLabel: "NO"
- chemicalSmiles: "CCn1cc(C(=O)[O-])c(=O)c2cc3c(cc21)OCO3.[K+]"
  targetOrTestSystem: "MurA (UniProt Q3YX52)"
  discreteLabel: "YES"
- chemicalSmiles: "[O-][n+]1ccccc1[S][Zn][S]c1cccc[n+]1[O-]"
  targetOrTestSystem: "MurA (UniProt Q3YX52)"
  discreteLabel: "NO"
- chemicalSmiles: "CC(=O)[O][Hg][c]1ccccc1"
  targetOrTestSystem: "MurA (UniProt Q3YX52)"
  discreteLabel: "YES"

----------
Molecular target: MurF (UniProt P11880)
Assay: relative enzymatic activity vs untreated control (fraction); higher = less inhibition
Conditions: 100 µM; incubation time: 2 h at 37 C
Tick 1 if relative enzymatic activity is 1 or greater. Tick -1 if relative enzymatic activity is less than 1.

- chemicalSmiles: "Cc1c(N)nc([C@H](CC(N)=O)NC[C@@H](N)C(N)=O)nc1C(=O)N[C@H](C(=O)N[C@@H](C)[C@H](O)[C@@H](C)C(=O)N[C@@H](C(=O)NCCc1nc(-c2nc(C(=O)NCCC[S+](C)C)cs2)cs1)[C@@H](C)O)[C@@H](O[C@H]1O[C@H](CO)[C@H](O)[C@@H](O)[C@H]1O[C@H]1O[C@H](CO)[C@@H](O)[C@H](OC(N)=O)[C@@H]1O)c1c[nH]cn1"
  discreteLabel: -1
- chemicalSmiles: "Cc1c(N)nc([C@H](CC(N)=O)NC[C@@H](N)C(N)=O)nc1C(=O)N[C@H](C(=O)N[C@@H](C)[C@H](O)[C@@H](C)C(=O)N[C@@H](C(=O)NCCc1nc(-c2nc(C(=O)NCCC[S+](C)C)cs2)cs1)[C@@H](C)O)[C@@H](O[C@H]1O[C@H](CO)[C@H](O)[C@@H](O)[C@H]1O[C@H]1O[C@H](CO)[C@@H](O)[C@H](OC(N)=O)[C@@H]1O)c1cnc[nH]1"
  discreteLabel: 1
- chemicalSmiles: "Cn1ncnc2c(=O)n(C)c(=O)nc1-2"
  discreteLabel: -1

----------
Biological target: MurF (UniProt P11880)
Sequence (whole entry): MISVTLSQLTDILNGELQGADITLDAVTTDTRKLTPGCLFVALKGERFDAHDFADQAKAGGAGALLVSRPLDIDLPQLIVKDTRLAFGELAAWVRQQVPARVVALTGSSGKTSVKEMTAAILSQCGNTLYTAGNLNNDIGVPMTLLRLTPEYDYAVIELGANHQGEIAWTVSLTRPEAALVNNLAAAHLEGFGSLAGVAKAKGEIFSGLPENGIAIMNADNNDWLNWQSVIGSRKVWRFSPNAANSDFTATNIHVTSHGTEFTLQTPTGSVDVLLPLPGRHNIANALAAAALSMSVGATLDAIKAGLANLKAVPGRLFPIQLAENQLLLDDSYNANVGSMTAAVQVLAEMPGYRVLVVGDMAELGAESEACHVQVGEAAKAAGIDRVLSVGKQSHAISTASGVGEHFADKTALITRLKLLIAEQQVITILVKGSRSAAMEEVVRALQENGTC
Assay: relative enzymatic activity vs untreated control (fraction); higher = less inhibition
Details: 100 µM; incubation time: 2 h at 37 C
propertyLabel: relative enzymatic activity

- chemicalSmiles: "CCCCCCCCCCCCCCCC[N+](C)(C)C.[Br-]"
  assayResult: 0.112
- chemicalSmiles: "O=[N+]([O-])c1ccc(N(CCO)CCO)c2c1no[n+]2[O-]"
  assayResult: 0.923
- chemicalSmiles: "O=[N+]([O-])C(Br)(CO)CO"
  assayResult: 0.946
- chemicalSmiles: "CC(=O)Oc1ccc(Cl)c2cccnc12"
  assayResult: 0.983
- chemicalSmiles: "CCCCCCCCCCCCCCCC[n+]1ccccc1.[Cl-]"
  assayResult: 0.0685
- chemicalSmiles: "C[CH2][Hg][S]c1ccccc1C(=O)[O-].[Na+]"
  assayResult: 0.982
- chemicalSmiles: "CN(C)[C@@H]1C(=O)[C@@H](C(N)=O)C(=O)[C@@]2(O)C(=O)[C@H]3C(=O)c4c(O)ccc(Cl)c4[C@@](C)(O)[C@H]3C[C@@H]12"
  assayResult: 1.2
- chemicalSmiles: "COP(=S)(OC)Oc1cc(Cl)c(Cl)cc1Cl"
  assayResult: 1.05
- chemicalSmiles: "O=S(=O)(O)O.Oc1cccc2cccnc12"
  assayResult: 0.951
